Experiment: Acute oral toxicity in rats
Set-up: species or system female Sprague Dawley rats
Conditions: in vivo, rat, 14 days, approximate value
Protocol: The product of the EXAMPLE 1, ±αmethyl-4-(furan-2-carbonyl)phenyl acetic acid, was subjected to toxicological and pharmacological tests in rats and mice. The animals used were Sprague Dawley rats and Swiss mice of both sexes, to which the product was administered orally as a 2% suspension in gum arabic parenterally as the sodium salt. This has been tested in male and female mice weighing from 18 to 22 g and in female rats weighing from 90 to 120 grams. […]
outcome.measure: LD50 at 336 h

[[record]]
molecule = "CC(C(=O)O)c1ccc(C(=O)c2ccco2)cc1 (racemic) [Example 1]"
result = "~980 mg/kg"

